target: T1, PP1α_(7-330) Y134A/H66K (UniProt P62136 7-330, Y134A | H66K); assay: SPR; His6-PP1 constructs or SDS22_(56-360):PP1α_(7-330) captured on a Ni-NTA chip (NiHC200M), I3 and variants injected; 25 °C; 20 mM Tris pH 8.0, 500 mM NaCl, 0.5 mM TCEP, 0.05% Tween-20; one-to-one one-state or two-state fit; settings: both partners purified
T1 construct: Protein phosphatase 1 alpha catalytic subunit (PP1α), residues 7-330; also called PP1_(7-330) Y134A/H66K
T1 sequence (P62136 7-330 H66K/Y134A): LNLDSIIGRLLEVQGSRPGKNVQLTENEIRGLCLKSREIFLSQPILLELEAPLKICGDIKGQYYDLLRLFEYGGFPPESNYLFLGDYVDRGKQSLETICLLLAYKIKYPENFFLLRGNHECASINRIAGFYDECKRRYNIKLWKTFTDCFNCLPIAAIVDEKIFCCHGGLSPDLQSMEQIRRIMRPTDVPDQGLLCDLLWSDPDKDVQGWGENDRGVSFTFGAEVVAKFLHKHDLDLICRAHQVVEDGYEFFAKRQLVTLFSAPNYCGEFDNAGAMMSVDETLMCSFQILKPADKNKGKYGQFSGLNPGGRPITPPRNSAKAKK
readout-type: pKd
The value called pKd is obtained by taking minus log10 of the concentration in mol/L.

Reported pKd of SLTIKLRKRKPEKKVEWTSDTVDNEHMGRRSSKCCCIYEKPR (domain or fragment, human, UniProt O60927 27-68, looked up, source: E. coli BL21 (DE3), purified (Ni-NTA, TEV, heat 95 °C, SEC); not shown: His6, N-terminal, cleaved; MBP, N-terminal, cleaved) [I3_(27-68)] : 7.92
